- Tested on: CHO
- PROTOCOL_TEXT: % viability of CHO cells (MTT); higher = less toxic
- DETAILS: 2 µM; 48 h
Provide the recorded % viability of CHO cells for the entries that follow.

[[record]]
molecule = "O=C(O)c1cc(-c2ccccc2)nc2ccccc12"
readout_value = "114%"

[[record]]
molecule = "CC[C@H](NC(=O)[C@H](C)NC)C(=O)N1C[C@@H](O)C[C@H]1Cc1c(-c2[nH]c3cc(F)ccc3c2C[C@@H]2C[C@H](O)CN2C(=O)[C@H](CC)NC(=O)[C@H](C)NC)[nH]c2cc(F)ccc12"
readout_value = "102%"


Could you tell me % viability of CHO cells for each of these molecules? They are listed below.
1. Fc1ccc(-c2nc(-c3c[nH]c4ccc(Br)cc34)[nH]c2-c2ccc(F)cc2)cc1
2. Cc1[nH]c2ccccc2c1CCNCc1ccc(/C=C/C(=O)NO)cc1
3. CC(=O)NC[C@H]1CN(c2ccc(N3CCSCC3)c(F)c2)C(=O)O1
4. CC(C)(C)c1cccc(-c2nc3cc(C(=N)N)ccc3[nH]2)c1O
5. Fc1ccc2c(/C=C/c3nnn[nH]3)c[nH]c2c1
6. CNC(=O)C1O[C@@H](n2cnc3c(NCc4cccc(I)c4)nc(Cl)nc32)[C@H](O)[C@@H]1O (some centres undefined)
7. C[C@H](Cn1cnc2c(N)ncnc21)OCP(=O)(O)O

97.3%
76.4%
105%
98.4%
80.4%
97.5%
89.8%
